Target: furin, P09958;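 note: purified furin at 1:10 enzyme:substrate in 50 mM HEPES pH 7.5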
Sequence (P09958 whole entry): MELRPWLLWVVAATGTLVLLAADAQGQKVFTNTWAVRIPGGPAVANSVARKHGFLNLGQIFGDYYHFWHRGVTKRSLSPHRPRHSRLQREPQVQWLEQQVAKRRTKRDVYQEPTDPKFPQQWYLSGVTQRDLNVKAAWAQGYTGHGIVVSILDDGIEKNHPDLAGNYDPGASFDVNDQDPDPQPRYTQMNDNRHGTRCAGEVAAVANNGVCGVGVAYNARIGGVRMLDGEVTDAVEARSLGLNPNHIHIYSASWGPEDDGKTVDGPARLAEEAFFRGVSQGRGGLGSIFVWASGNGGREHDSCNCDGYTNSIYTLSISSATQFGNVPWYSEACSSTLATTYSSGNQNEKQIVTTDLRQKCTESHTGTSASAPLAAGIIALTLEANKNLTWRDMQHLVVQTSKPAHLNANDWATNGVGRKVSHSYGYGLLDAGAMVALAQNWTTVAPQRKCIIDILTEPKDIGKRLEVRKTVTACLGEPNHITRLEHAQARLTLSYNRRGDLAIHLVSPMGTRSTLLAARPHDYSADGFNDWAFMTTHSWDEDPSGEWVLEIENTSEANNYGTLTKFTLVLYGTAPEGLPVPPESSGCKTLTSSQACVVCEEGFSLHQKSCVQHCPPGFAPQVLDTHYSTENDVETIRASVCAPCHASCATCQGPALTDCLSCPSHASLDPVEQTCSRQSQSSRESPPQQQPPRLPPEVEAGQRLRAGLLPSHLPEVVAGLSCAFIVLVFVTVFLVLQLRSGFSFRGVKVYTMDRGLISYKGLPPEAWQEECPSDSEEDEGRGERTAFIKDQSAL
Experiment: furin cleavage Z-score vs untreated control; higher = more cleavage, active = 3.5 or more, inactive = 1 or less, 8 variable residues between constant flanks
Conditions: 7.5 min
The other results are listed elsewhere or left out. The hit rate among all sequences tested is not known here.
Entry flag: Fulfilled if furin cleavage Z-score reaches 6; Not fulfilled if it does not.

>  <sequence.content>
CARHHRGRGGAGNASASA [FS-2022]

>  <category.label>
Not fulfilled

$$$$
>  <sequence.content>
CAMRAFQRRMAGNASASA [FS-276]

>  <category.label>
Not fulfilled

$$$$
>  <sequence.content>
CATLGFGAYMAGNASASA [HC791]

>  <category.label>
Not fulfilled

$$$$
>  <sequence.content>
CARHHRFPRAAGNASASA [FS-1063]

>  <category.label>
Fulfilled

$$$$
>  <sequence.content>
CARKKRSQTYAGNASASA [FS-1958]

>  <category.label>
Fulfilled

$$$$
>  <sequence.content>
CASQSRIRRMAGNASASA [FS-504]

>  <category.label>
Fulfilled

$$$$
